Molecular target: CmrR (Clostridioides difficile R20291)
Sequence: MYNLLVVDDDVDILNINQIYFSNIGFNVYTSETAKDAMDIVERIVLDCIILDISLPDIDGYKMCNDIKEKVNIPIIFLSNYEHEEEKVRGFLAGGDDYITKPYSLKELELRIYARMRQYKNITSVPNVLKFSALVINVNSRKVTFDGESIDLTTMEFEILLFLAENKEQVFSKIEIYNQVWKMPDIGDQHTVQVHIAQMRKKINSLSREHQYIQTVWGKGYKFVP
Experiment: EMSA
Settings: EMSA: 15 nM probe, 1x binding buffer 20 mM Tris pH 8, 1 mM EDTA, 10 mM MgCl2, 100 mM NaCl, 5% glycerol, plus half volume protein in His6 buffer (10 mM Tris …)
propertyMeasured: binding

CTAGCCAATAGACAAGTTTCTAGAAAAATAATAAATTTATAAGTGAAAATGACTTTAAGCTCCATTCTCCAACAATCGGAGACTTTAATTAGTATTTAATAATAAATCTTAATGTTCAATACAATATTCAAGAATTGTTCAAAAATACTTAAG (double strand) [probe 9 (cmr switch in other orientation than probe 6)]
binds
GTATTTAATAATAAATCTTAATGTTCAATACAATATTCAAGAATTGTTCAAAAATACTTAAGTATTATAGTCTAGTTTGTAAAGATATTATAAAATAATAATACTAGTTATATATGAAAATAAAACATTATAATTTGTAATAATTATAAAACTTGAGATTATGATTAAAATACCTTTGAATGGAGTGGTGTAATGTATAATTTACTGGTTGTAGATGATGATGTTG (double strand) [probe 7 (TSS4, 226 bp)]
binds
